target: Rat SERT (Rattus norvegicus); assay: Rat brain SERT binding, [3H]-Citalopram displacement on rat brain membranes
Sequence (P31652 whole entry): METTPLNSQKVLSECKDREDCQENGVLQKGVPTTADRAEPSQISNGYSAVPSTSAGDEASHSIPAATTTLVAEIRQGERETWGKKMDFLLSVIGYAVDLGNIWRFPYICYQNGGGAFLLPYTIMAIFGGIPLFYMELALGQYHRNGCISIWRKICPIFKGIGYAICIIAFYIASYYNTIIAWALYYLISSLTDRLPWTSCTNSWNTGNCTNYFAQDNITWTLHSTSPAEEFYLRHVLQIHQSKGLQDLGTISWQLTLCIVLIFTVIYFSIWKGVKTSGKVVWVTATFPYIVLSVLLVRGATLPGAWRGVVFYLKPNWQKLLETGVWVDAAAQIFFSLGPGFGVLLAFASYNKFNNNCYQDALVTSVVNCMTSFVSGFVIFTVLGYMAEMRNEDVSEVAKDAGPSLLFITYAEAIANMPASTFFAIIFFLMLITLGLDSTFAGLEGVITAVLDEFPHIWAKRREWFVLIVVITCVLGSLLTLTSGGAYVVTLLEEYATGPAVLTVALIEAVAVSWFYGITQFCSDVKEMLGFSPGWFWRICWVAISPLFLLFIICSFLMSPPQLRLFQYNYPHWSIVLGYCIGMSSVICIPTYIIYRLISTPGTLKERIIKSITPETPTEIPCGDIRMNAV
Where a name gives a salt, the structure may show the parent alone.
attribute measured: log10 Ki (log10 of the value in nM)

compound="Clc1ccc(C2CNCc3cc(OCCCN4CCCCC4)ncc32)cc1Cl (racemic) [Example 15]" attribute_measured="log10 Ki" result_number=1.30
compound="Clc1ccc(C2CNCc3cc(OCCCN4CCCCC4)ncc32)cc1Cl (single isomer, unassigned; enantiomer a) [Example 45]" attribute_measured="log10 Ki" result_number=2.00
compound="FC(F)(F)Oc1ccc(C2CNCc3cc(OCCCN4CCCCC4)ncc32)cc1 (stereo not shown)" attribute_measured="log10 Ki" result_number=1.87
compound="Fc1ccc(C2CNCc3cc(OCCCN4CCCCC4)ncc32)cc1Cl (stereo not shown)" attribute_measured="log10 Ki" result_number=2.15
compound="COc1ccc(C2CN(C)Cc3nc(C#CCCN4CCCCC4)ccc32)cc1 (stereo not shown)" attribute_measured="log10 Ki" result_number=1.32
compound="Fc1cccc(C2CNCc3cc(OCCCN4CCCCC4)ncc32)c1 (stereo not shown)" attribute_measured="log10 Ki" result_number=3.30
compound="COc1ccc(C2CN(C)Cc3cc(C#CCCN4CCCCC4)cnc32)cc1 (stereo not shown) [Example 48, trifluoroacetic acid salt]" attribute_measured="log10 Ki" result_number=3.00
compound="COc1ccc(C2CNCc3cc(OCCCN4CCC(F)(F)CC4)ncc32)cc1 (stereo not shown)" attribute_measured="log10 Ki" result_number=1.75
compound="COc1ccc(C2CN(C)Cc3cc(OC4CCN(C)CC4)ncc32)cc1 (stereo not shown)" attribute_measured="log10 Ki" result_number=2.14
compound="COc1ccc(C2CN(C)Cc3cc(CCCCN4CCCCC4)cnc32)cc1 (stereo not shown) [Example 49, trifluoroacetic acid salt]" attribute_measured="log10 Ki" result_number=2.79

* * *

# human H3 receptor (Homo sapiens): Ki values follow
# Sequence (Q9Y5N1 whole entry): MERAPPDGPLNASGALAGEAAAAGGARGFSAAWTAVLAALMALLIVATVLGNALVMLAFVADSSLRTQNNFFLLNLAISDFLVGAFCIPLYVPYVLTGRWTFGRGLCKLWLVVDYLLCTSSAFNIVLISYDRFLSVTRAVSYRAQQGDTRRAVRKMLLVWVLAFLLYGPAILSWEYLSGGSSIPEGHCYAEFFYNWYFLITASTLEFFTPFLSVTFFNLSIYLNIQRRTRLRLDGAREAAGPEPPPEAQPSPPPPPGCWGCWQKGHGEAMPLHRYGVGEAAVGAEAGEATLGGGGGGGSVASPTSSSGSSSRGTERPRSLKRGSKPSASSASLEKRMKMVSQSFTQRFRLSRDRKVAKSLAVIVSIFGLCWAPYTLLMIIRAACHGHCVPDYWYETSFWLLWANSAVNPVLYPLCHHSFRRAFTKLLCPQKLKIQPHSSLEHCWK
attribute measured: Ki (nM)

molecule="CCN(CC)CCCOc1cc2c(cn1)C(c1ccccc1)CN(C)C2 (stereo not drawn)" u=nM result_number=4
molecule="COc1cccc(C2CN(C)Cc3cc(OCCCN4CCCCC4)ncc32)c1 (stereo not drawn)" u=nM result_number=8
molecule="CN1Cc2cc(OCCCN3CCCCC3)ncc2C(c2ccc(Cl)c(Cl)c2)C1 (single isomer, unassigned; enantiomer a) [Example 38]" u=nM result_number=50
molecule="CN1Cc2cc(OCCCN3CCCCC3)ncc2C(c2ccc(Cl)c(Cl)c2)C1 (racemic) [Example 16]" u=nM result_number=18
molecule="CCN(CC)CCCOc1cc2c(cn1)C(c1ccc(Cl)c(Cl)c1)CNC2 (stereo not drawn)" u=nM result_number=7
molecule="COc1ccc(C2CN(C)Cc3nc(C#CCCN4CCCCC4)ccc32)cc1 (stereo not drawn)" u=nM result_number=11
molecule="CCN(CC)CCCOc1cc2c(cn1)C(c1ccccc1)CNC2 (stereo not drawn)" u=nM result_number=1
molecule="Fc1cccc(C2CNCc3cc(OCCCN4CCCCC4)ncc32)c1 (stereo not drawn)" u=nM result_number=2
molecule="CC(C)N1CCC(COc2cc3c(cn2)C(c2ccc(Cl)c(Cl)c2)CN(C)C3)CC1 (stereo not drawn)" u=nM result_number=13
